IC50 values, listed per item
tested system: mevalonate kinase (Streptococcus pneumoniae D39)
measurement notes: S. pneumoniae MK inhibition retest, confirmation, biochemical, cuvette format, NADH absorbance 340 nm (AID 1000)
reported conditions: recombinant MK, PK/LDH coupled NADH absorbance 340 nm

> print(dat)
                                    compound  endpoint.result
 1  O=C(NCc1ccco1)c1cccc(-n2sc3ccccc3c2=O)c1           137 nM
 2   O=C(c1ccc(-n2sc3ccccc3c2=O)cc1)N1CCOCC1           383 nM
 3    CCN(CC)C(=O)c1ccc(-n2sc3ccccc3c2=O)cc1           230 nM
 4   O=C(c1ccc(-n2sc3ccccc3c2=O)cc1)N1CCCCC1           246 nM
 5  O=C(NCc1ccco1)c1ccc(-n2sc3ccccc3c2=O)cc1           157 nM
 6    CCCN(CCC)C(=O)c1ccccc1-n1sc2ccccc2c1=O           795 nM
 7     O=C(NC1CC1)c1ccc(-n2sc3ccccc3c2=O)cc1           171 nM
 8   O=C(NCc1ccccc1)c1ccccc1-n1sc2ccccc2c1=O           242 nM
 9    O=C(c1ccc(-n2sc3ccccc3c2=O)cc1)N1CCCC1           198 nM
10     O=C(c1ccccc1-n1sc2ccccc2c1=O)N1CCOCC1          1630 nM

Prompt line: For the compound O=C(NCc1ccccc1)c1cccc(-n2sc3ccccc3c2=O)c1 , what IC50 is on record?
Response line: 68 nM

Prompt line: For the compound O=C(c1ccccc1-n1sc2ccccc2c1=O)N1CCCC1 , what IC50 is on record?
Response line: 514 nM

Prompt line: For the compound O=C(c1cccc(-n2sc3ccccc3c2=O)c1)N1CCCCC1 , what IC50 is on record?
Response line: 244 nM

Prompt line: For the compound CCCN(CCC)C(=O)c1cccc(-n2sc3ccccc3c2=O)c1 , what IC50 is on record?
Response line: 304 nM

---

tested system: mevalonate kinase (Streptococcus pneumoniae D39)
measurement notes: S. pneumoniae MK inhibition retest, confirmation, biochemical, cuvette format, NADH absorbance 340 nm (AID 1000)
reported conditions: recombinant MK, PK/LDH coupled NADH absorbance 340 nm; at 100 µM; stronger effect = higher value
Calls of active or inactive are those of the source.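 Rule for the calls: active = over 20% inhibition at the single screening dose, then confirmed by dose response with half-maximal potency of 40 µM or better; inactive = the rest.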
recorded endpoint: inhibition

Sample records with inhibition:
> print(dat)
                        molecule  endpoint.result
1    O=c1c2ccccc2nc2n1CCC2(Br)Br         inactive
2      O=c1c2cccc(Cl)c2nc2n1CCC2         inactive
3  COc1cc2nc3n(c(=O)c2cc1OC)CCC3         inactive
4       O=c1c2cc(F)ccc2nc2n1CCC2         inactive

Prompt line: For the molecule O=c1c2ccc(Cl)cc2nc2n1CCC2 , what inhibition is on record?
Response line: inactive

Prompt line: For the molecule O=c1c2cc(Br)ccc2nc2n1CCC2 , what inhibition is on record?
Response line: inactive

Prompt line: For the molecule COc1cccc2c(=O)n3c(nc12)/C(=C/c1ccc2c(c1)OCO2)CC3 , what inhibition is on record?
Response line: inactive

Prompt line: For the molecule Cc1cccc2c(=O)n3c(nc12)CCC3 , what inhibition is on record?
Response line: inactive

Prompt line: For the molecule Cc1ccc2nc3n(c(=O)c2c1)CCC3 , what inhibition is on record?
Response line: inactive

Prompt line: For the molecule O=c1c2ccccc2nc2n1CCC2N1CCOCC1 (stereo unspecified) , what inhibition is on record?
Response line: inactive

Prompt line: For the molecule O=c1c2ccccc2nc2n1CCC2NC1CC1 (stereo unspecified) , what inhibition is on record?
Response line: inactive

Prompt line: For the molecule O=c1c2ccccc2nc2n1CCC2N1CCC(Cc2ccccc2)CC1 (stereo unspecified) , what inhibition is on record?
Response line: inactive

Reference source: PubChem BioAssay AID1000
